# Subject Of Test: human muscarinic M1 receptor (Homo sapiens)
# Construct: expressed in transfected cells; host or cells: BSR-M1H
# Sequence (P11229 whole entry): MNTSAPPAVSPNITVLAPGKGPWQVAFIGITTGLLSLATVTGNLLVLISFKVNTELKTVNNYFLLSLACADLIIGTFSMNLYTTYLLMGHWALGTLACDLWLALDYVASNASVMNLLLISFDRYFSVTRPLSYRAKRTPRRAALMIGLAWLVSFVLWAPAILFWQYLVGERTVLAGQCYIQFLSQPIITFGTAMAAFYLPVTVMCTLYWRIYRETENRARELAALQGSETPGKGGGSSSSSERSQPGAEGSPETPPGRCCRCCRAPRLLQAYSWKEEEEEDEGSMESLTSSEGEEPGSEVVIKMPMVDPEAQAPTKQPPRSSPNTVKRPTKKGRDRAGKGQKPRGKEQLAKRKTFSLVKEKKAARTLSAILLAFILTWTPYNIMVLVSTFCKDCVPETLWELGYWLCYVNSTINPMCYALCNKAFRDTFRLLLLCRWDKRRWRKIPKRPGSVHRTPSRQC
# Test Name: Binding to human muscarinic M1 receptors ([3H]N-methylscopolamine)
Measure Name: IC50

>>> measured_result("CN1CCN(c2nc(C3(c4ccccc4)CCOCC3)cs2)CC1 [Compound 59]")
"> 1000 nM"

----------
# Subject Of Test: human dopamine D3 receptor (Homo sapiens)
# Construct: expressed in transfected cells; host or cells: CHO
# Sequence (P35462 whole entry): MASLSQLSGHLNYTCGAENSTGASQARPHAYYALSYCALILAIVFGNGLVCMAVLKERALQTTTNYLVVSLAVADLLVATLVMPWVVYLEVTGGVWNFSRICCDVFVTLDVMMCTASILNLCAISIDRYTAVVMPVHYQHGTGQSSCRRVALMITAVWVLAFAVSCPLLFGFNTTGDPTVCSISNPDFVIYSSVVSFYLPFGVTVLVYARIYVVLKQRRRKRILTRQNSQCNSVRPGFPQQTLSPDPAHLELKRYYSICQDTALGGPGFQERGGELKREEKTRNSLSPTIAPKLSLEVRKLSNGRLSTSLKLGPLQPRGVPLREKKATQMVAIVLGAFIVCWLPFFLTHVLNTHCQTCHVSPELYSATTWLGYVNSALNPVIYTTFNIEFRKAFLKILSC
# Test Name: Radioligand binding assay, human dopamine D3 receptors ([3H]Spiperone)
# Condition Notes: human; Example 100 table; read-out: IC50 (nM) D3
Recorded IC50 for the following compounds
Measure Name: IC50

>>> measured_result("COc1ccccc1N1CCN(c2nc(C3(c4ccccc4F)CCCCC3)cs2)CC1")
"> 1000 nM"
>>> measured_result("CNC1CCN(c2nc(C3(c4ccc(Cl)cc4)CCCCC3)cs2)C1 (centres unmarked)")
"> 1000 nM"
>>> measured_result("CN(C)C1CCN(c2nc(C3(c4ccc(Cl)cc4)CCCCC3)cs2)C1 (centres unmarked)")
"> 1000 nM"
>>> measured_result("CN1CCCN(c2nc(C3(c4ccc(Cl)cc4)CCCCC3)cs2)CC1")
"< 1000 nM"
>>> measured_result("CN1CCCC1CCNc1nc(C2(c3ccccc3F)CCCCC2)cs1 (single isomer, unassigned) [Compound 130]")
"< 100 nM"

----------
# Subject Of Test: human serotonin 5-HT2C receptor (Homo sapiens, UniProt P28335)
# Construct: expressed in transfected cells; host or cells: CHO-K1
# Sequence (P28335 33-458): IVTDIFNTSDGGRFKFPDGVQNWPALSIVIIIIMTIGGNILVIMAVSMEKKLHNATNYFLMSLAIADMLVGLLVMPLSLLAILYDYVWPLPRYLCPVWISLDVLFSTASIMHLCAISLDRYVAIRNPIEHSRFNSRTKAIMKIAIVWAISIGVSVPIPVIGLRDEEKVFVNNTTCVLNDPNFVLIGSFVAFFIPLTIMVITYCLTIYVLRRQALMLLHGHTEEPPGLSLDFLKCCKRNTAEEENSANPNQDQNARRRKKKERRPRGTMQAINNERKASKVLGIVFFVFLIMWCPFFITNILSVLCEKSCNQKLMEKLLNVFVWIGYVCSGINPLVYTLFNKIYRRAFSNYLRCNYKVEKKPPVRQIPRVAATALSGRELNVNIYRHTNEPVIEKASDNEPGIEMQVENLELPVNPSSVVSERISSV
# Test Name: Radioligand binding assay, human 5-HT2C receptors ([3H]Mesulergine)
# Condition Notes: human 5-HT2c; Example 16 table; read-out: IC50 (nM) 5-HT2c
Recorded IC50 for the following molecules
Measure Name: IC50

>>> measured_result("CC(C)N1CCN(c2nc(C3(c4ccc(Cl)cc4)CCCCC3)cs2)CC1 [Compound 78]")
"> 1000 nM"
>>> measured_result("Clc1cccc(C2(c3csc(C4CCNCC4)n3)CCOCC2)c1 [Compound 68]")
"> 1000 nM"
>>> measured_result("CCN1CCCC1CNc1nc(C2(c3ccc(Cl)cc3)CCC2)cs1 (stereo not drawn) [Compound 25]")
"< 1000 nM"
>>> measured_result("Clc1ccc(C2(c3csc(NCCN4CCCCC4)n3)CCC2)cc1 [Compound 23]")
"< 100 nM"
>>> measured_result("COc1ccc(C2(c3csc(N4CCN(C)CC4)n3)CCOCC2)cc1OC [Compound 74]")
"> 1000 nM"
>>> measured_result("CN1CCN(c2nc(C3(c4ccc(Cl)cc4)CCC3)no2)CC1 [Compound 28]")
"> 1000 nM"
>>> measured_result("CN1CCC(c2nc(C3(c4ccc(Cl)cc4)CCC3)cs2)CC1 [Compound 31]")
"< 1000 nM"
>>> measured_result("CN1CCN(c2nc(C3(c4ccc(F)cc4)CCCCC3)cs2)CC1 [Compound 81]")
"< 1000 nM"
>>> measured_result("Clc1ccc(C2(c3csc(C4CCNCC4)n3)CCC2)cc1 [Compound 30]")
"< 1000 nM"

----------
Recorded IC50 for the following compounds
# Subject Of Test: human serotonin 5-HT2B receptor (Homo sapiens)
# Construct: expressed in transfected cells; host or cells: CHO-K1
# Sequence (P41595 whole entry): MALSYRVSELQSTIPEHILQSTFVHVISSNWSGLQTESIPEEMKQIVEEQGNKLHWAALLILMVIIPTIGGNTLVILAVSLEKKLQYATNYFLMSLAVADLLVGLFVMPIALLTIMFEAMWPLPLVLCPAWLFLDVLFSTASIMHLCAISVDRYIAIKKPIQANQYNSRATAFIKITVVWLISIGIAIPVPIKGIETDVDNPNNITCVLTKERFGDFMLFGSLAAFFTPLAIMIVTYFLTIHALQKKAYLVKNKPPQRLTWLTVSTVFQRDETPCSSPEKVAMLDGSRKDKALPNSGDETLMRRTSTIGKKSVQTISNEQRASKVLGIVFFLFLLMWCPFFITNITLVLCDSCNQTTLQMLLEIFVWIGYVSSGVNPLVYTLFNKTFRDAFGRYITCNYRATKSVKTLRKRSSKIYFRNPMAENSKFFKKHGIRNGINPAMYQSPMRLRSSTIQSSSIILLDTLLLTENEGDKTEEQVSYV
# Test Name: Radioligand binding assay, human 5-HT2B receptors ([3H]LSD)
# Condition Notes: human; Example 100 table; read-out: IC50 (nM) 5-HT2B
Measure Name: IC50

>>> measured_result("CN1CCCC1CCNc1nc(C2(c3ccccc3F)CCCCC2)cs1 (racemic) [Compound 128]")
"< 1000 nM"
>>> measured_result("Cc1c(-c2csc(N3CCN(C)CC3)n2)sc2ccc(Cl)cc12")
"> 1000 nM"
>>> measured_result("CN1CCCC1CCNc1nc(C2(c3ccccc3F)CCCCC2)cs1 (single isomer, unassigned) [Compound 130]")
"< 100 nM"
>>> measured_result("CN1CCCN(c2nc(C3(c4ccccc4F)CCCC3)cs2)CC1")
"< 100 nM"
>>> measured_result("COc1cccc(C2(c3csc(N4CCN(C)CC4)n3)CCOCC2)c1")
"> 1000 nM"

// data source = patent US7087623B2
